biological target: purified PSMA (GCP2) (Homo sapiens)
Sequence (Q04609 whole entry): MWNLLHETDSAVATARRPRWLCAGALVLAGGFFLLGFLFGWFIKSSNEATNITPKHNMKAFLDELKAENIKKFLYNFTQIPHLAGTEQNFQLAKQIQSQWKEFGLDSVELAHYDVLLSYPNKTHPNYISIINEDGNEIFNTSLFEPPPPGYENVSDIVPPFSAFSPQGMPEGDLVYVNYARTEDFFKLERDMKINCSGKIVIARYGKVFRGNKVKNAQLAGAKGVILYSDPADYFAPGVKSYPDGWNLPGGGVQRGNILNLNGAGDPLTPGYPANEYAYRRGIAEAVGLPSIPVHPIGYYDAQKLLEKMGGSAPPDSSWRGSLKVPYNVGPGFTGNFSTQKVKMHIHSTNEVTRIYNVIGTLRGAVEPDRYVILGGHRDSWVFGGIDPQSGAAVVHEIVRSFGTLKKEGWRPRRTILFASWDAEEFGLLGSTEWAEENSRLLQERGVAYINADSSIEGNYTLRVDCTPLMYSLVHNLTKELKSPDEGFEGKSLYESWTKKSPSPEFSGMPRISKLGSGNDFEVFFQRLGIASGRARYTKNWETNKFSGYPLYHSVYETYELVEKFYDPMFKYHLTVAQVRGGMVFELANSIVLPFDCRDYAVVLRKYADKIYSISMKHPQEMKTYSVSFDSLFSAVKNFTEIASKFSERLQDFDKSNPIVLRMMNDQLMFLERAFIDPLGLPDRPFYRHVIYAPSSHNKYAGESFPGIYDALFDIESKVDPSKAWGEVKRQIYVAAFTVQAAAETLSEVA
pIC50: −log10 of the molar value.
quantity: pIC50

# get_value(readout= pIC50, system= purified PSMA (GCP2) (Homo sapiens)) for C=CS(=O)(=O)NC(CCC(=O)O)C(=O)O (stereo not shown)
< 4.00
